Data provenance: paper PMC12095580

B1: LRP6-GFP [not stated] / FLAG-AP2μ [not stated] (parent complex)
chain 1: APLLLYANRRDLRLVDATNGKENATIVVGGLEDAAAVDFVFSHGLIYWSDVSEEAIKRTEFNKTESVQNVVVSGLLSPDGLACDWLGEKLYWTDSETNRIEVSNLDGSLRKVLFWQELDQPRAIALDPSSGFMYWTDWGEVPKIERAGMDGSSRFIIINSEIYWPNGLTLDYEEQKLYWADAKLNFIHKSNLDGTNRQAVVKGSLPHPFALTLFEDILYWTDWSTHSILACNKYTGEGLREIHSDIFSPMDIHAFSQQRQPNATNPCGIDNGGCSHLCLMSPVKPFYQCACPTGVKLLENGKTCKDGATELLLLARRTDLRRISLDTPDFTDIVLQLEDIRHAIAIDYDPVEGYIYWTDDEVRAIRRSFIDGSGSQFVVTAQIAHPDGIAVDWVARNLYWTDTGTDRIEVTRLNGTMRKILISEDLEEPRAIVLDPMVGYMYWTDWGEIPKIERAALDGSDRVVLVNTSLGWPNGLALDYDEGKIYWGDAKTDKIEVMNTDGTGRRVLVEDKIPHIFGFTLLGDYVYWTDWQRRSIERVHKRSAEREVIIDQLPDLMGLKATNVHRVIGSNPCAEENGGCSHLCLYRPQGLRCACPIGFELISDMKTCIVPEAFLLFSRRADIRRISLETNNNNVAIPLTGVKEASALDFDVTDNRIYWTDISLKTISRAFMNGSALEHVVEFGLDYPEGMAVDWLGKNLYWADTGTNRIEVSKLDGQHRQVLVWKDLDSPRALALDPAEGFMYWTEWGGKPKIDRAAMDGSERTTLVPNVGRANGLTIDYAKRRLYWTDLDTNLIESSNMLGLNREVIADDLPHPFGLTQYQDYIYWTDWSRRSIERANKTSGQNRTIIQGHLDYVMDILVFHSSRQSGWNECASSNGHCSHLCLAVPVGGFVCGCPAHYSLNADNRTCSAPTTFLLFSQKSAINRMVIDEQQSPDIILPIHSLRNVRAIDYDPLDKQLYWIDSRQNMIRKAQEDGSQGFTVVVSSVPSQNLEIQPYDLSIDIYSRYIYWTCEATNVINVTRLDGRSVGVVLKGEQDRPRAVVVNPEKGYMYFTNLQERSPKIERAALDGTEREVLFFSGLSKPIALALDSRLGKLFWADSDLRRIESSDLSGANRIVLEDSNILQPVGLTVFENWLYWIDKQQQMIEKIDMTGREGRTKVQARIAQLSDIHAVKELNLQEYRQHPCAQDNGGCSHICLVKGDGTTRCSCPMHLVLLQDELSCGEPPTCSPQQFTCFTGEIDCIPVAWRCDGFTECEDHSDELNCPVCSESQFQCASGQCIDGALRCNGDANCQDKSDEKNCEVLCLIDQFRCANGQCIGKHKKCDHNVDCSDKSDELDCYPTEEPAPQATNTVGSVIGVIVTIFVSGTVYFICQRMLCPRMKGDGETMTNDYVVHGPASVPLGYVPHPSSLSGSLPGMSRGKSMISSLSIMGGSSGPPYDRAHVTGASSSSSSSTKGTYFPAILNPPPSPATERSHYTMEFGYSSNSPSTHRSYSYRPYSYRHFAPPTTPCSTDVCDSDYAPSRRMTSVATAKGYTSDLNYDSEPVPPPPTPRSQYLSAEENYESCPPSPYTERSYSHHLYPPPPSPCTDSS
chain 2: MIGGLFIYNHKGEVLISRVYRDDIGRNAVDAFRVNVIHARQQVRSPVTNIARTSFFHVKRSNIWLAAVTKQNVNAAMVFEFLYKMCDVMAAYFGKISEENIKNNFVLIYELLDEILDFGYPQNSETGALKTFITQQGIKSQHQTKEEQSQITSQVTGQIGWRREGIKYRRNELFLDVLESVNLLMSPQGQVLSAHVSGRVVMKSYLSGMPECKFGMNDKIVIEKQGKGTADETSKSGKQSIAIDDCTFHQCVRLSKFDSERSISFIPPDGEFELMRYRTTKDIILPFRVIPLVREVGRTKLEVKVVIKSNFKPSLLAQKIEVRIPTPLNTSGVQVICMKGKAKYKASENAIVWKIKRMAGMKESQISAEIELLPTNDKKKWARPPISMNFEVPFAPSGLKVRYLKVFEPKLNYSDHDVIKWVRYIGRSGIYETRC

Variants of: B1
Assay: coIP (FLAG IP, α-GFP blot densitometry)
Listed here are variants together with their documented ratio to parent.
When you answer, write just the number.

Observe how each entry below is paired with its result.
changes	recorded.result
chain 1 Y1503A	0.21
chain 1 Y1503A, chain 1 F1506A	0.31

ratio to parent reported for this variant chain 1 Y1498A, chain 1 Y1501A, chain 1 Y1503A, chain 1 F1506A : 0.05

ratio to parent reported for this variant chain 1 S1560A : 0.69

ratio to parent reported for this variant chain 1 Y1498A, chain 1 Y1501A : 0.58
